Tested on: LXFL 529 NSCLC
Assay: NCI tumour cell line growth inhibition, 48 h
value type: TGI

// below: answered compounds
1. Cc1cccc(-n2c(=S)[nH]c3c(sc(=O)n3-c3ccccc3C)c2=O)c1; > 100 µM
2. COc1ccc(/C=C2\CCCC(C(NO)c3ccc(OC)cc3)C2=NO)cc1 (centres undefined); > 100 µM
3. N#CCCN(CCC#N)c1ccc(C(Sc2ccccc2)C(NC(=O)c2cc([N+](=O)[O-])ccc2Cl)C(=O)Sc2ccccc2)cc1 (centres undefined); 11.9 µM
4. Cc1ccc(-c2cc(-c3ccccc3)c(C#N)c(=O)n2C2OC(CO)C(O)C(O)C2O)cc1 (centres undefined); > 100 µM
5. CCOC(=O)c1s/c(=N\Nc2nc3ccccc3cc2C2OCCO2)n(Cc2ccccc2)c1C; > 100 µM
6. O=C(c1ccncc1)n1nc(-c2ccccc2)c(N=Nc2ccccc2[N+](=O)[O-])c1-c1ccccc1; > 100 µM
7. C/C(=N\N(c1ccccc1)c1ccccc1)c1c(O)cc(C)oc1=O; > 100 µM
8. CCOP(=O)(OCC)OC(C#N)c1ccc(-c2ccccc2)cc1 (centres undefined); 32 µM

Problem: Short answer please: TGI, LXFL 529 NSCLC, entry Cc1ccccc1C1=C(C(=O)Nc2ccc(Cl)c(Cl)c2)NC(=S)NC1N (centres undefined)
Result: > 100 µM
